Reported pIC50 is given for each of the following compounds.
Test system: tubulin
assay comment: Inhibition of tubulin polymerization (turbidimetry)
Type: biochemical, bovine
study conditions: Table X; different glutamate preparation (1M monosodium glutamate and GTP); Hydrochloride; read-out: inhibn of tubulin polymn IC50 (±SD)
Structures can show the parent of a compound that is named as a salt.
# pIC50: negative log10 of molar concentration; output just the value

Worked cases, answers included:
input: What value of pIC50 has been reported for the following compound? CCc1ccc(NCc2cc(OC)c(OC)c(OC)c2)cc1 [110b, Hydrochloride]
output: 5.14

input: What value of pIC50 has been reported for the following compound? COc1cc(CNc2ccc(C)cc2)cc(OC)c1OC.Cl [110a, Hydrochloride]
output: 5.46

input: What value of pIC50 has been reported for the following compound? COc1cc(CNc2ccc(SC)cc2)cc(OC)c1OC [110e, Hydrochloride]
output: 4.80

Next:
input: What value of pIC50 has been reported for the following compound? CCOc1ccc(NCc2cc(OC)c(OC)c(OC)c2)cc1 [110d, Hydrochloride]
output: 4.96

input: What value of pIC50 has been reported for the following compound? COc1ccc(NCc2cc(OC)c(OC)c(OC)c2)cc1 [110c, Hydrochloride]
output: 5.05
